- measurement-protocol: Acute oral toxicity (LD50, Litchfield and Wilcoxon)
- Type: in vivo
- applied-conditions: in vivo, rat, suspension in 0.5% aqueous Tween 80, observation 14 days
# maps each entry to its LD50 at 336 h

{"compound": "CC(Oc1ccc(Cl)cc1)C(=O)N1C(C(=O)O)C(C)(C)SC1(C)C (centres unmarked)", "display-unit": "mg/kg", "qualifier-sign": ">", "LD50 at 336 h": 5000}
{"compound": "CC1(C)SC2(CCCCC2)N(C(=O)COc2ccc(Cl)cc2)C1C(=O)O (centres unmarked)", "display-unit": "mg/kg", "qualifier-sign": "=", "LD50 at 336 h": 4350}

Just for reference, patent US4073918A is where these values come from.
